assay: Inhibition of rabbit muscle glycogen phosphorylase a; parameters: species or system Oryctolagus cuniculus
pIC50: −log10 of the molar value.
propertyMeasured: pIC50

C[C@H]1[C@H](C)CC[C@]2(C(=O)OCc3ccccc3)CC[C@]3(C)C(=CC[C@@H]4[C@@]5(C)C[C@H](O)[C@H](O)C(C)(C)[C@@H]5CC[C@]43C)[C@H]12: 3.97
CC(=O)OC[C@H]1O[C@@H](OC(=O)[C@]23CC[C@@H](C)[C@H](C)[C@H]2C2=CC[C@@H]4[C@@]5(C)C[C@@H](O)[C@H](O)C(C)(C)[C@@H]5CC[C@@]4(C)[C@]2(C)CC3)[C@H](OC(C)=O)[C@@H](OC(C)=O)[C@@H]1OC(C)=O: 3.43
CCOC(=O)COC(=O)[C@]12CC[C@@H](C)[C@H](C)[C@H]1C1=CC[C@@H]3[C@@]4(C)C[C@@H](O)[C@H](O)C(C)(C)[C@@H]4CC[C@@]3(C)[C@]1(C)CC2: 3.99
C[C@H]1[C@H](C)CC[C@]2(C(=O)O)CC[C@]3(C)C(=CC[C@@H]4[C@@]5(C)C[C@H](O)[C@H](O)C(C)(C)[C@@H]5CC[C@]43C)[C@H]12: 3.94
CC(=O)O[C@@H]1C[C@]2(C)[C@H]3CC=C4[C@@H]5[C@@H](C)[C@H](C)CC[C@]5(C(=O)O)CC[C@@]4(C)[C@]3(C)CC[C@H]2C(C)(C)[C@H]1OC(C)=O: 4.46

====

assay: Inhibition of rabbit muscle glycogen phosphorylase a; design: species or system Oryctolagus cuniculus
Mark 1 (yes) only when IC50 stays strictly below 50 µM. Values equal to the cut-off are 0 (no).

CCCCCC(=O)O[C@@H]1C[C@]2(C)[C@H]3CC=C4[C@@H]5[C@@H](C)[C@H](C)CC[C@]5(C(=O)O)CC[C@@]4(C)[C@]3(C)CC[C@H]2C(C)(C)[C@H]1O: 1 (yes)
C[C@H]1[C@H](C)CC[C@]2(C(=O)OCc3ccccc3)CC[C@]3(C)C(=CC[C@@H]4[C@@]5(C)C[C@@H](O)[C@H](O)C(C)(C)[C@@H]5CC[C@]43C)[C@H]12: 1 (yes)
C[C@H]1[C@H](C)CC[C@]2(C(=O)OCc3ccccc3)CC[C@]3(C)C(=CC[C@@H]4[C@@]5(C)C[C@@H](O)C(=O)C(C)(C)[C@@H]5CC[C@]43C)[C@H]12: 1 (yes)
C[C@H]1[C@H](C)CC[C@]2(C(=O)OCc3ccccc3)CC[C@]3(C)C(=CC[C@@H]4[C@@]5(C)C[C@@H]6OC6C(C)(C)[C@@H]5CC[C@]43C)[C@H]12 (single isomer, unassigned): 0 (no)
CCCCOC(=O)[C@]12CC[C@@H](C)[C@H](C)[C@H]1C1=CC[C@@H]3[C@@]4(C)C[C@@H](O)[C@H](O)C(C)(C)[C@@H]4CC[C@@]3(C)[C@]1(C)CC2: 0 (no)
CCCC(=O)O[C@@H]1C[C@]2(C)[C@H]3CC=C4[C@@H]5[C@@H](C)[C@H](C)CC[C@]5(C(=O)O)CC[C@@]4(C)[C@]3(C)CC[C@H]2C(C)(C)[C@H]1OC(=O)CCC: 0 (no)
CCOC(=O)[C@]12CC[C@@H](C)[C@H](C)[C@H]1C1=CC[C@@H]3[C@@]4(C)C[C@@H](O)[C@H](O)C(C)(C)[C@@H]4CC[C@@]3(C)[C@]1(C)CC2: 1 (yes)
CCC(=O)O[C@@H]1C[C@]2(C)[C@H]3CC=C4[C@@H]5[C@@H](C)[C@H](C)CC[C@]5(C(=O)O)CC[C@@]4(C)[C@]3(C)CC[C@H]2C(C)(C)[C@H]1OC(=O)CC: 0 (no)
C[C@H]1[C@H](C)CC[C@]2(C(=O)O)CC[C@]3(C)C(=CC[C@@H]4[C@@]5(C)C[C@@H](O)[C@@H](O)C(C)(C)[C@@H]5CC[C@]43C)[C@H]12: 0 (no)
C=CCOC(=O)[C@]12CC[C@@H](C)[C@H](C)[C@H]1C1=CC[C@@H]3[C@@]4(C)C[C@@H](O)[C@H](O)C(C)(C)[C@@H]4CC[C@@]3(C)[C@]1(C)CC2: 0 (no)
